- protocol_summary: Solubility in the oocyte test medium
- Format: physicochemical
- condition_details: nd 96 with 1% dmso, organic solvent or mixture; ND 96 containing 1% DMSO; read-out: solubility (soluble at a concentration of up to)
quantity: solubility

INSERT INTO assay_data (molecule, observed_value) VALUES
  ('CCCCCCC(C)(C)c1cc(OC(C)=O)c2c(c1)OC(C)(C)[C@H]1CC=C(C(=O)O)C[C@H]21 [HU-245, (3S,4S)-THC-DMH-7-oic acid, acetate]', '≤ 0.1 µM');
